# System name: CYP2C19 (Homo sapiens, UniProt P33261)
# Sequence (P33261 whole entry): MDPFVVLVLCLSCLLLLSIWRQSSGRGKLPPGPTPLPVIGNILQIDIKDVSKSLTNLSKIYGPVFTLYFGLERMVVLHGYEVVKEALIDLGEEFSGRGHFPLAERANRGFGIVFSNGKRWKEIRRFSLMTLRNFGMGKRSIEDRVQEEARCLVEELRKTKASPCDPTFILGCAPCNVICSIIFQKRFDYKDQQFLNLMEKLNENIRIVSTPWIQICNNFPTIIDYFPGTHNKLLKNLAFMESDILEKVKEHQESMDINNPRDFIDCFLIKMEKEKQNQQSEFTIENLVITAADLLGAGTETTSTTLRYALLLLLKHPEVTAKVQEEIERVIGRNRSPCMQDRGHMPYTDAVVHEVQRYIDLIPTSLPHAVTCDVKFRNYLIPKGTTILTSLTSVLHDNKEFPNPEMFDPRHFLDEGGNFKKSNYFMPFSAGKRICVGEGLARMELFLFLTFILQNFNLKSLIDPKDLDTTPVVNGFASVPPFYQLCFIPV
Assay metric: IC50 (µM)

In [3]: df
Out[3]:
                              sample_smiles  value_observed
0  C[C@@H](c1ccc(-c2ccc(S(C)(=O)=O)nc2)cc1)N1CC[C@](CC(C)(C)O)(c2ccccc2)OC1=O            47.4
1  C[C@@H](c1ccc(-c2ccncn2)cc1)N1CC[C@](CC(C)(C)O)(c2ccccc2)OC1=O             2.6
2  Cc1nn(C)c(C)c1-c1ccc([C@H](C)N2CC[C@](CC(C)(C)O)(c3ccccc3)OC2=O)cc1            17.7
